target: SHP2-C SH2; test: SH2 binding enrichment of the phosphorylated peptide, bacterial display (enrichment ratio); higher = better substrate or ligand; peptides without Tyr show the background
We'd kindly ask you to apply these SH2 binding enrichment classes: label 0 (below 0.6), label 1 (0.6 to below 0.7), label 2 (0.7 or more)

Observe how each entry below is paired with its result.
{"columns": ["BIOPOLYMER_SEQUENCE", "ANSWER_LABEL"],
 "data": [
  ["LFSINYLHFGE [KDM4C_Y201_YF]", "label 2"],
  ["REAAAYLHGRL [AGXT_Y297]", "label 2"],
  ["RMETEYGPSVT [MXRA5_Y2717]", "label 1"],
  ["LFRFGYANTSE [SI_Y1233_C1229Y_YF]", "label 2"],
  ["TDTAAYEERVR [SPTB_Y474]", "label 1"],
  ["RVEDACILTCN [CCT6A_Y229_Y229C]", "label 2"]
]}

Q: Band assignment needed for PLFKIYVAELI [MRPL28_Y230] please.
A: label 1

Q: For DSGKLYALDVL [INO80_Y1104] , which SH2 binding enrichment bin applies?
A: label 2

Q: Exam item: assign TIQMMYGCDVG [HLA-A_Y123_I121M] to the correct category.
A: label 0

Q: For ATGGFYSFGGG [KRT24_Y120_YF] , which SH2 binding enrichment bin applies?
A: label 0

Q: State the band of HEDPMYDIIRD [RP9_Y142]
A: label 1

Q: Lab log: YGEYRYRSVIK [CFTR_Y517_D513G] — assign SH2 binding enrichment category
A: label 2

Q: Band assignment needed for CTTIHYNYMSN [TP53_Y234_C238S] please.
A: label 2

Q: Bin this entry: ERLWDYGMSSS [F8_Y1728]
A: label 2

Q: Would you mind sorting PQAVTYATVKH [LILRB4_Y360_K362T] into the appropriate category?
A: label 2

Q: The entry to classify is RQNNSYTCYTA [SLC20A2_Y386_R382Q] ; which class holds it?
A: label 1

---

tested on: c-Src; assay: phosphorylation enrichment, bacterial display (enrichment ratio); higher = better substrate or ligand; peptides without Tyr show the background
Catalogue of phosphorylation enrichment values

// below: answered sequences
{"columns": ["BIOPOLYMER_SEQUENCE", "TESTED_TARGET", "EXPERIMENTAL_ENDPOINT", "EXPERIMENTAL_VALUE"],
 "data": [
  ["NWGSPYKSDGC [ZNF347_Y261_N264D]", "c-Src", "phosphorylation enrichment", 0.397],
  ["NTPNAYLRVNV [ADD2_Y440_T439A]", "c-Src", "phosphorylation enrichment", 0.391],
  ["EIELAYRRRPP [GRIN2B_Y1109]", "c-Src", "phosphorylation enrichment", 0.353]
]}

Q: Item ITNLLYHLVGW [GBA_Y412_V414L] has what recorded phosphorylation enrichment?
A: 2.99

Q: Which measured phosphorylation enrichment value corresponds to DPHKIFEFVNS [IRF3_Y107_Y107F] ?
A: 0.417

Q: // query phosphorylation enrichment value for entry TDTAAYEERVR [SPTB_Y474]
A: 0.753

---

target: EPHB1 (UniProt P54762); experiment: phosphorylation enrichment, bacterial display (enrichment ratio); higher = better substrate or ligand; peptides without Tyr show the background
Sequence (P54762 whole entry, looked up): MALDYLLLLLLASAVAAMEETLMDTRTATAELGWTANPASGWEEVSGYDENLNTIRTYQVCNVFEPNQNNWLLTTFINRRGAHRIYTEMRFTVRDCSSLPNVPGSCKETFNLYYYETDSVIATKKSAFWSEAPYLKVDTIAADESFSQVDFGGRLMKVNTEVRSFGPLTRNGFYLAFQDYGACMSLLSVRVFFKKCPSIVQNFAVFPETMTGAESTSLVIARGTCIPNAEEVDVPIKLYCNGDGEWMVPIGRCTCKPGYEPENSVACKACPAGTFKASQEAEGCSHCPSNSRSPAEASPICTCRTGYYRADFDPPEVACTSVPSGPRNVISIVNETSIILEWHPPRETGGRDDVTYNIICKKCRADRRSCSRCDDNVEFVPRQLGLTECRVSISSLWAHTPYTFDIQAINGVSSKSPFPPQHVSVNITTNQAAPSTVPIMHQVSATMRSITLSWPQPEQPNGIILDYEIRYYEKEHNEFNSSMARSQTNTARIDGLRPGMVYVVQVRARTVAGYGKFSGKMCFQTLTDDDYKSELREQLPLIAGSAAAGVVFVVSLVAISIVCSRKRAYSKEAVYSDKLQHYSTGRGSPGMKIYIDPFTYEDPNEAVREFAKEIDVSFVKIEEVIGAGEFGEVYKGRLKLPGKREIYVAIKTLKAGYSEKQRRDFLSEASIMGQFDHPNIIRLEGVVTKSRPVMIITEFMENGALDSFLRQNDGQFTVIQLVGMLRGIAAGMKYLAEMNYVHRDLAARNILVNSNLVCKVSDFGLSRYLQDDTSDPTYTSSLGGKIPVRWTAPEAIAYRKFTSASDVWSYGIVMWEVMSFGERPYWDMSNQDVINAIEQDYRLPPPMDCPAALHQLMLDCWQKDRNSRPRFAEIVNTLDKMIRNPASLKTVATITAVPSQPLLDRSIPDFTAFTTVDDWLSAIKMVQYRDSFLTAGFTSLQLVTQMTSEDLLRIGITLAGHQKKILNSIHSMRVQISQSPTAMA
In this section, each of the sequences is paired with its reported phosphorylation enrichment.
Write the number on its own, no unit after it.

{"columns": ["BIOPOLYMER_SEQUENCE", "phosphorylation enrichment"],
 "data": [
  ["SHLSSYTTHPQ [NIPBL_Y195_P192L]", 0.389]
]}

Q: Name the recorded phosphorylation enrichment for INNIDYYKNTT [FGFR2_Y656_K659N] .
A: 0.392

Q: Which phosphorylation enrichment is listed for MKNDLYQTPLH [NFKB1_Y582_R578K] ?
A: 0.668

Q: # phosphorylation enrichment lookup, item ECIEFYELDKK [PMM2_Y145_R141C]
A: 0.579

Q: Report phosphorylation enrichment for STTSDYQWDVS [MTDH_Y364] please.
A: 0.741

Q: # get_value(readout='phosphorylation enrichment', item= TLGPFYPSRLF [CRYAA_Y18] )
A: 0.47

Q: What does the record list as phosphorylation enrichment for ADYYDYGHGLS [KHDRBS3_Y304] ?
A: 17.9

Q: # input sequence: QRIHDYYEHRY [HCN4_Y554] ; wanted: its phosphorylation enrichment
A: 1.17

Q: Using the record for KLPDAYEPLIL [G6PD_Y437_R439P] , report its phosphorylation enrichment.
A: 0.55

Q: Requested read-out: phosphorylation enrichment. Entry: ANNEYYFRVCA
A: 0.895

Q: Which phosphorylation enrichment value is on record for QLLIEYPPEEV [ZZZ3_Y670_K669E] ?
A: 0.788

Q: Data request, read-out phosphorylation enrichment, for RIVEIYSRRLR [GCH1_Y175_Q180R]
A: 0.728

Q: Could you share which phosphorylation enrichment value was measured for EYDRLYEEYTR [PIK3R1_Y467] ?
A: 4.27

Q: Which phosphorylation enrichment value belongs to VPVNGYQPVTA [ROR2_Y824_P828T] ?
A: 0.392

Q: Which phosphorylation enrichment value belongs to YYSSEYHCVGG [CTSC_Y345_Y347C] ?
A: 7.69

Q: If you can, please state the reported phosphorylation enrichment value of PPGRSYSPFDF [TNS1_Y793_YF] .
A: 0.4

Q: What does the record list as phosphorylation enrichment for WASGIYFVPKG [APBB1IP_Y340_R335W_YF] ?
A: 10.1

Q: Recorded phosphorylation enrichment for IRTIDYRYTVC [IDS_Y497_W502C] , please?
A: 0.653

Q: Data request, read-out phosphorylation enrichment, for EWLRRHLENGK [HLA-A_Y195_Y195H]
A: 0.39

Q: Consider the sequence shown here: QFPDIYAREEV [CRX_Y67_V66I_YF] What is its recorded phosphorylation enrichment?
A: 0.628

Q: Look up phosphorylation enrichment: LSNFNYEQRGA [API5_Y497_G493S]
A: 0.796

Q: Data request, read-out phosphorylation enrichment, for DNEYAYLKAII [HNF4A_Y288]
A: 1.68

Q: Request the reported phosphorylation enrichment associated with YMRGMYFRMTD [PLA2G6_Y541_K545T]
A: 0.63

---

Below, each of the sequences is paired with its reported phosphorylation enrichment value.
target: FGFR3 (UniProt P22607); assay: phosphorylation enrichment, bacterial display (enrichment ratio); higher = better substrate or ligand; peptides without Tyr show the background
Sequence (P22607 whole entry, looked up): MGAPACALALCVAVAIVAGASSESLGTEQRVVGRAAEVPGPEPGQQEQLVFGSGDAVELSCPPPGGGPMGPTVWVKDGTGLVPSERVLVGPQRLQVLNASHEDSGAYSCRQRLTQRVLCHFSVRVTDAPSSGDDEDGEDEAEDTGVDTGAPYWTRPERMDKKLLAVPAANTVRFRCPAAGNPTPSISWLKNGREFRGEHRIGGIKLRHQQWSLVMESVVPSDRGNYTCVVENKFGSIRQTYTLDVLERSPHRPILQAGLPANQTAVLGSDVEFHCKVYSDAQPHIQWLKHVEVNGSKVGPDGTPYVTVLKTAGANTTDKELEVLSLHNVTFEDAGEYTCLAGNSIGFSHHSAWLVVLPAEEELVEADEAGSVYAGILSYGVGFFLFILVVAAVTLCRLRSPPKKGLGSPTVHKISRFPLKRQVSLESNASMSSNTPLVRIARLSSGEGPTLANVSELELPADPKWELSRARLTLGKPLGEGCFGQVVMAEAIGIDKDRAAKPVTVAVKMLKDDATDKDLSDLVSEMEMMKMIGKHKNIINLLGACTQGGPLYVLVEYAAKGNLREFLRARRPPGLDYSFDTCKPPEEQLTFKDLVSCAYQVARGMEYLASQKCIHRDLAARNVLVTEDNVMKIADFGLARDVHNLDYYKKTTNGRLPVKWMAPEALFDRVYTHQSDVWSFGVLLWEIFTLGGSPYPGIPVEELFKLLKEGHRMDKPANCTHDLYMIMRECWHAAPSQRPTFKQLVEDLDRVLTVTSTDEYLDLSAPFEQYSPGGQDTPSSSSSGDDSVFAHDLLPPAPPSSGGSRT
Give a plain numeric answer without units written out.

{"columns": ["BIOPOLYMER_SEQUENCE", "EXPERIMENTAL_ENDPOINT", "EXPERIMENTAL_VALUE"],
 "data": [
  ["GKVADYIPQLP [GLS_Y249_A254P]", "phosphorylation enrichment", 0.634],
  ["EYGRRYGFSRQ [CCDC93_Y209]", "phosphorylation enrichment", 0.588],
  ["SSVKLYRVYCD [FGB_Y266_P265L]", "phosphorylation enrichment", 0.728],
  ["ADYYDYGHGLS [KHDRBS3_Y304]", "phosphorylation enrichment", 16.8]
]}

Q: Which phosphorylation enrichment value belongs to VTHKEYFIFLE [CAMKV_Y95_R92H] ?
A: 1.87

Q: // lookup phosphorylation enrichment for HDHYGYRQSVT [CD55_Y245_R240H]
A: 0.623

Q: Which phosphorylation enrichment is listed for PGNIVYSSLCG [BCOR_Y90] ?
A: 1.02

Q: Field request: phosphorylation enrichment | item: PMDTFYDSTRG [DYNC2H1_Y2231_YF]
A: 0.806

Q: Fill in the blank: the reported phosphorylation enrichment of TENAGYFFRIS is ____.
A: 0.868

Q: Quick check: phosphorylation enrichment of RESFKYFPSSL [CXXC1_Y218_YF] ?
A: 0.547

Q: Quick one: phosphorylation enrichment of PTYEHYANSTQ [SLC12A3_Y70] ?
A: 0.807

Q: phosphorylation enrichment for QEITTYRRLLE [KRT14_Y415_A413T] ?
A: 0.78

Q: Which phosphorylation enrichment value belongs to IIAVHYVLEES [RYR2_Y4559] ?
A: 0.626

---

target: Grb2 SH2 (UniProt P62993); experiment: SH2 binding enrichment of the phosphorylated peptide, bacterial display (enrichment ratio); higher = better substrate or ligand; peptides without Tyr show the background
Sequence (P62993 whole entry, looked up): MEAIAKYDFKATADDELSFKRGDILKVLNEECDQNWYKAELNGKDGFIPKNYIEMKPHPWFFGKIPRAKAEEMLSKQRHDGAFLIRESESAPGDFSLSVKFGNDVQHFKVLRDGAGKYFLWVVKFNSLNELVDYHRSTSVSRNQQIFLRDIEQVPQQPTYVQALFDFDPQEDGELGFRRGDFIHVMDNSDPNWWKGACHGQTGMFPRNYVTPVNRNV
Rule: SH2 binding enrichment of 0.8 or more gives 1 (yes); anything lower gives 0 (no).

Previously resolved entries follow.
{"columns": ["BIOPOLYMER_SEQUENCE", "ANSWER_LABEL"],
 "data": [
  ["LERFIYNRQEF [HLA-DPB1_Y59_E62Q_YF]", "1 (yes)"],
  ["ISDNAYQFMLT [MYH7_Y162_YF]", "0 (no)"],
  ["DQLVKYGVNPG [TMPO_Y127]", "1 (yes)"],
  ["QRRLIYRCQVG [NR2E3_Y81_R76Q]", "0 (no)"],
  ["SVVAPYEPPEV [TP53_Y220_V218A]", "1 (yes)"]
]}

Q: Say whether QLAPQYTFAQG [FLNA_Y1761_YF] shows SH2 binding enrichment of 0.8 or more.
A: 1 (yes)

Q: Identify whether the reported SH2 binding enrichment of the following sequence is 0.8 or greater: EVVGRYSVHYA [MLH1_Y183_N187Y]
A: 0 (no)

Q: Reported SH2 binding enrichment at or above 0.8? ATCKAYGQALA [TKT_Y321_R318C]
A: 1 (yes)

Q: # bool: SH2 binding enrichment of QEITTYRRLLE [KRT14_Y415_A413T] >= 0.8
A: 1 (yes)

Q: hey, is SH2 binding enrichment for this one >= 0.8? KENITYMKSEQ [L1TD1_Y24_R27S]
A: 1 (yes)

Q: Decide: SH2 binding enrichment of FRIDHYLGKEM [G6PD_Y202_YF] >= 0.8?
A: 1 (yes)

Q: Check this sequence for SH2 binding enrichment at or above 0.8: QELRRYLKSGI [MICA_Y194_V199I]
A: 0 (no)

Q: Check if SH2 binding enrichment >= 0.8 (inclusive). Item: REAAAYLHGRL [AGXT_Y297]
A: 1 (yes)
